Tested on: Enterococcus faecium MDR Van A ATCC 51559
Experiment: MIC assay, E. faecium MDR Van A ATCC 51559
Type: cell-based
Conditions: 24 h incubation, visual reading
Value Kind: Minimum Inhibitory Concentration (MIC) E. faecium ATCC51559

These recorded examples may help you get a feel for the data.
Molecule	Reported
CNC(CC(C)C)C(=O)NC1C(=O)NC(CC(N)=O)C(=O)NC2C(=O)NC3C(=O)NC(C(=O)NC(C(=O)NCCCNC(=O)C(CCCCN)NC(=O)C(CCCCN)NC(=O)CC4CCCCC4)c4cc(O)cc(O)c4-c4cc3ccc4O)C(O)c3ccc(c(Cl)c3)Oc3cc2cc(c3OC2OC(CO)C(O)C(O)C2OC2CC(C)(N)C(O)C(C)O2)Oc2ccc(cc2Cl)C1O (stereo not drawn)	x (x = >4)
CCCCCCCCCC(=O)N[C@@H](CCCCN)C(=O)NCCCNC(=O)[C@H]1NC(=O)[C@H]2NC(=O)[C@H](NC(=O)[C@@H]3NC(=O)[C@H](CC(N)=O)NC(=O)[C@H](NC(=O)[C@@H](CC(C)C)NC)[C@H](O)c4ccc(c(Cl)c4)Oc4cc3cc(c4O[C@@H]3O[C@H](CO)[C@@H](O)[C@H](O)[C@H]3O[C@H]3C[C@](C)(N)[C@H](O)[C@H](C)O3)Oc3ccc(cc3Cl)[C@H]2O)c2ccc(O)c(c2)-c2c(O)cc(O)cc21	xx (xx = 1-4)
CCCCCCCC(O)CC(=O)N[C@@H](CCCCN)C(=O)N[C@@H](CCCCN)C(=O)NCCCNC(=O)[C@H]1NC(=O)[C@H]2NC(=O)[C@H](NC(=O)[C@@H]3NC(=O)[C@H](CC(N)=O)NC(=O)[C@H](NC(=O)[C@@H](CC(C)C)NC)[C@H](O)c4ccc(c(Cl)c4)Oc4cc3cc(c4O[C@@H]3O[C@H](CO)[C@@H](O)[C@H](O)[C@H]3O[C@H]3C[C@](C)(N)[C@H](O)[C@H](C)O3)Oc3ccc(cc3Cl)[C@H]2O)c2ccc(O)c(c2)-c2c(O)cc(O)cc21 (stereo partly drawn)	x (x = >4)
CNC(=O)C(CCCCNC(=O)C1NC(=O)C2NC(=O)C(NC(=O)C3NC(=O)C(CC(N)=O)NC(=O)C(NC(=O)C(CC(C)C)NC)C(O)c4ccc(c(Cl)c4)Oc4cc3cc(c4OC3OC(CO)C(O)C(O)C3OC3CC(C)(N)C(O)C(C)O3)Oc3ccc(cc3Cl)C2O)c2ccc(O)c(c2)-c2c(O)cc(O)cc21)NC(=O)C(CCCCN)NC(=O)C(CCCCN)NC(=O)CCCCCCCCc1ccccc1 (stereo not drawn)	xx (xx = 1-4)
CCCCCCCCCCC(=O)N[C@@H](CCCCN)C(=O)N[C@@H](CCCCNC(=O)[C@H]1NC(=O)[C@H]2NC(=O)[C@H](NC(=O)[C@@H]3NC(=O)[C@H](CC(N)=O)NC(=O)[C@H](NC(=O)[C@@H](CC(C)C)NC)[C@H](O)c4ccc(c(Cl)c4)Oc4cc3cc(c4O[C@@H]3O[C@H](CO)[C@@H](O)[C@H](O)[C@H]3O[C@H]3C[C@](C)(N)[C@H](O)[C@H](C)O3)Oc3ccc(cc3Cl)[C@H]2O)c2ccc(O)c(c2)-c2c(O)cc(O)cc21)C(=O)O [MCC_000080, nC10CO-K-K(Vanc)-OH]	x (x = >4)

Tell me the measured Minimum Inhibitory Concentration (MIC) E. faecium ATCC51559 of CN[C@H](CC(C)C)C(=O)N[C@H]1C(=O)N[C@@H](CC(N)=O)C(=O)N[C@H]2C(=O)N[C@H]3C(=O)N[C@H](C(=O)N[C@H](C(=O)NCCCC[C@H](NC(=O)[C@H](CCCCN(C)C)NC(=O)c4ccc(Cl)cc4)C(=O)O)c4cc(O)cc(O)c4-c4cc3ccc4O)[C@H](O)c3ccc(c(Cl)c3)Oc3cc2cc(c3O[C@@H]2O[C@H](CO)[C@@H](O)[C@H](O)[C@H]2O[C@H]2C[C@](C)(N)[C@H](O)[C@H](C)O2)Oc2ccc(cc2Cl)[C@H]1O , please.
x (x = >4)

Tell me the measured Minimum Inhibitory Concentration (MIC) E. faecium ATCC51559 of CCCCCCCCCCC(=O)N[C@@H](CCCCN)C(=O)N[C@@H](CCCCN)C(=O)NCCCNC(=O)[C@H]1NC(=O)[C@H]2NC(=O)[C@H](NC(=O)[C@@H]3NC(=O)[C@H](CC(N)=O)NC(=O)[C@H](NC(=O)[C@@H](CC(C)C)NC)[C@H](O)c4ccc(c(Cl)c4)Oc4cc3cc(c4O[C@@H]3O[C@H](CO)[C@@H](O)[C@H](O)[C@H]3O[C@H]3C[C@](C)(N)[C@H](O)[C@H](C)O3)Oc3ccc(cc3Cl)[C@H]2O)c2ccc(O)c(c2)-c2c(O)cc(O)cc21 , please.
xx (xx = 1-4)

Tell me the measured Minimum Inhibitory Concentration (MIC) E. faecium ATCC51559 of CCCCCCCCCCC(=O)N[C@@H](CCCCN)C(=O)NCCCNC(=O)[C@H]1NC(=O)[C@H]2NC(=O)[C@H](NC(=O)[C@@H]3NC(=O)[C@H](CC(N)=O)NC(=O)[C@H](NC(=O)[C@@H](CC(C)C)NC)[C@H](O)c4ccc(c(Cl)c4)Oc4cc3cc(c4O[C@@H]3O[C@H](CO)[C@@H](O)[C@H](O)[C@H]3O[C@H]3C[C@](C)(N)[C@H](O)[C@H](C)O3)Oc3ccc(cc3Cl)[C@H]2O)c2ccc(O)c(c2)-c2c(O)cc(O)cc21 , please.
xx (xx = 1-4)
